Tested on: lymphocyte (thymocyte / T-cell) proliferation
Assay explanation: Comitogen-induced thymocyte proliferation procedure (LAF)
Format: cell-based, normal BALB/c mice
Reported conditions: Mus musculus, Thymocyte; thymus cells of BALB/c mice cultured 72 hours with PHA and IL-1, tritiated thymidine pulse during last six hours
pIC50: −log10 of the molar value.

Molecule: CCOP(=O)(NC(=O)O[C@@H]1CC[C@@H](C[C@@H](C)[C@@H]2C/C(=N\OC)[C@H](C)/C=C(\C)[C@@H](O)[C@@H](OC)C(=O)[C@H](C)C[C@H](C)/C=C/C=C/C=C(\C)[C@@H](OC)C[C@@H]3CC[C@@H](C)[C@@](O)(O3)C(=O)C(=O)N3CCCC[C@H]3C(=O)O2)C[C@H]1OC)OCC [Example 3]
Experimental system: lymphocyte (thymocyte / T-cell) proliferation
pIC50: 7.00

Molecule: CCOP(=O)(NC(=O)O[C@@H]1/C(C)=C/[C@@H](C)C(=O)C[C@@H]([C@H](C)C[C@@H]2CC[C@@H](OC(=O)NP(=O)(OCC)OCC)[C@H](OC)C2)OC(=O)[C@@H]2CCCCN2C(=O)C(=O)[C@]2(O)O[C@@H](CC[C@H]2C)C[C@H](OC)/C(C)=C/C=C/C=C/[C@@H](C)C[C@@H](C)C(=O)[C@@H]1OC)OCC [Example 1]
Experimental system: lymphocyte (thymocyte / T-cell) proliferation
pIC50: 7.04

Molecule: CCOP(=O)(NC(=O)O[C@@H]1CC[C@@H](C[C@@H](C)[C@@H]2C/C(=N/OC)[C@H](C)/C=C(\C)[C@@H](O)[C@@H](OC)C(=O)[C@H](C)C[C@H](C)/C=C/C=C/C=C(\C)[C@@H](OC)C[C@@H]3CC[C@@H](C)[C@@](O)(O3)C(=O)C(=O)N3CCCC[C@H]3C(=O)O2)C[C@H]1OC)OCC [Example 4]
Experimental system: lymphocyte (thymocyte / T-cell) proliferation
pIC50: 7.38

Molecule: CCOP(=O)(NC(=O)O[C@@H]1CC[C@@H](C[C@@H](C)[C@@H]2CC(=O)[C@H](C)/C=C(\C)[C@@H](O)[C@@H](OC)C(=O)[C@H](C)C[C@H](C)/C=C/C=C/C=C(\C)[C@@H](OC)C[C@@H]3CC[C@@H](C)[C@@](O)(O3)C(=O)C(=O)N3CCCC[C@H]3C(=O)O2)C[C@H]1OC)OCC [Example 2]
Experimental system: lymphocyte (thymocyte / T-cell) proliferation
pIC50: 8.00
